The entries below come with measured Ki values attached.
Target: 5-hydroxytryptamine receptor 1B (Homo sapiens, UniProt P28222)
Sequence (P28222 whole entry): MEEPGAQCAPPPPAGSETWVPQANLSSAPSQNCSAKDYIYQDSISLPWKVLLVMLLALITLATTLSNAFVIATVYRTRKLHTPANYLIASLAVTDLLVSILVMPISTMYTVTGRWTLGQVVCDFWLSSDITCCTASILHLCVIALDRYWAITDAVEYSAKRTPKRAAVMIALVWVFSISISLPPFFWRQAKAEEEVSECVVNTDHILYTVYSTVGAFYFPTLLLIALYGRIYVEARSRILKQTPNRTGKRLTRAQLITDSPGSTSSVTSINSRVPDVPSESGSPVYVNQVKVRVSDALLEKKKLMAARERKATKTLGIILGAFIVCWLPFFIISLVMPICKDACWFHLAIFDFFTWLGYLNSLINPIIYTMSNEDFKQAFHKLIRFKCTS
Assay: Ability to inhibit the forskolin-stimulated c-AMP formation mediated by human 5-hydroxytryptamine 1B receptor in CHO-K1 cells
Number in pM, nothing else.

Example compounds with recorded Ki:
[
  {
    "smiles": "NCCc1c[nH]c2ccc(OCCNC(=O)COc3ccc4[nH]cc(CCN)c4c3)cc12",
    "subject.of.test": "5-hydroxytryptamine receptor 1B (Homo sapiens, UniProt P28222)",
    "units.of.measure": "pM",
    "Ki": 160
  },
  {
    "smiles": "NCCc1c[nH]c2ccc(OCC(=O)N3CCC(C4CCN(C(=O)COc5ccc6[nH]cc(CCN)c6c5)CC4)CC3)cc12",
    "subject.of.test": "5-hydroxytryptamine receptor 1B (Homo sapiens, UniProt P28222)",
    "units.of.measure": "pM",
    "Ki": 220
  },
  {
    "smiles": "NCCc1c[nH]c2ccc(OCc3ccc(COc4ccc5[nH]cc(CCN)c5c4)cc3)cc12",
    "subject.of.test": "5-hydroxytryptamine receptor 1B (Homo sapiens, UniProt P28222)",
    "units.of.measure": "pM",
    "Ki": 100
  },
  {
    "smiles": "NCCc1c[nH]c2ccc(OCCCCCCOc3ccc4[nH]cc(CCN)c4c3)cc12",
    "subject.of.test": "5-hydroxytryptamine receptor 1B (Homo sapiens, UniProt P28222)",
    "units.of.measure": "pM",
    "Ki": 500
  },
  {
    "smiles": "NCCc1c[nH]c2ccc(OCCNC(=O)NCCOc3ccc4[nH]cc(CCN)c4c3)cc12",
    "subject.of.test": "5-hydroxytryptamine receptor 1B (Homo sapiens, UniProt P28222)",
    "units.of.measure": "pM",
    "Ki": 200
  },
  {
    "smiles": "NCCc1c[nH]c2ccc(OCc3ccccc3COc3ccc4[nH]cc(CCN)c4c3)cc12",
    "subject.of.test": "5-hydroxytryptamine receptor 1B (Homo sapiens, UniProt P28222)",
    "units.of.measure": "pM",
    "Ki": 1700
  }
]

Please look at the following compound next.
[in] Entry NCCc1c[nH]c2ccc(OCCN3CCN(C(=O)COc4ccc5[nH]cc(CCN)c5c4)CC3)cc12 has what Ki?
[out] 110

###

// 5-hydroxytryptamine receptor 1D (Homo sapiens, UniProt P28221) Ki records
Express the result in nM but write the number alone.

[in] // fetch 5-hydroxytryptamine receptor 1D (Homo sapiens, UniProt P28221) Ki for NCCc1c[nH]c2ccc(OCCN3CCN(CCOc4ccc5[nH]cc(CCN)c5c4)CC3)cc12
[out] 0.35

###

Reported Ki is given for each of the following molecules.
Molecular target: 5-hydroxytryptamine receptor 1D (Homo sapiens, UniProt P28221)
Sequence (P28221 whole entry): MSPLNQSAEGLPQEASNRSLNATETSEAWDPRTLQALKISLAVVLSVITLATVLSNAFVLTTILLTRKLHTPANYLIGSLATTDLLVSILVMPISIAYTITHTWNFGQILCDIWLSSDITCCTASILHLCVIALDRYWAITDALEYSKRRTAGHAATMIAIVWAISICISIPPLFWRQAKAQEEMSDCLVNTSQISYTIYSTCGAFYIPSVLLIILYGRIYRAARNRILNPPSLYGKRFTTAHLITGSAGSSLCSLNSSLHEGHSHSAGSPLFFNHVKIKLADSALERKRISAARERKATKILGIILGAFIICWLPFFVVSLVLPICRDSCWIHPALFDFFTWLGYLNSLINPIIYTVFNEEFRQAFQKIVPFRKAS
# unit: pM | format: bare number

Solved entries (count: 7):
[
  {
    "smiles": "NCCc1c[nH]c2ccc(OCCNC(=O)NCCOc3ccc4[nH]cc(CCN)c4c3)cc12",
    "units.of.measure": "pM",
    "Ki": 400
  },
  {
    "smiles": "NCCc1c[nH]c2ccc(OCC(=O)NCCCNC(=O)COc3ccc4[nH]cc(CCN)c4c3)cc12",
    "units.of.measure": "pM",
    "Ki": 300
  },
  {
    "smiles": "NCCc1c[nH]c2ccc(OCCCCCCOc3ccc4[nH]cc(CCN)c4c3)cc12",
    "units.of.measure": "pM",
    "Ki": 460
  },
  {
    "smiles": "NCCc1c[nH]c2ccc(OCCCCCCNS(=O)(=O)c3ccc(-c4ccc(S(=O)(=O)NCCCCCCOc5ccc6[nH]cc(CCN)c6c5)cc4)cc3)cc12",
    "units.of.measure": "pM",
    "Ki": 450
  },
  {
    "smiles": "NCCc1c[nH]c2ccc(OCCN3CCN(C(=O)COc4ccc5[nH]cc(CCN)c5c4)CC3)cc12",
    "units.of.measure": "pM",
    "Ki": 160
  },
  {
    "smiles": "NCCc1c[nH]c2ccc(OCc3cccc(COc4ccc5[nH]cc(CCN)c5c4)c3)cc12",
    "units.of.measure": "pM",
    "Ki": 350
  },
  {
    "smiles": "NCCc1c[nH]c2ccc(OCC(=O)Nc3ccc(N4CCN(C(=O)COc5ccc6[nH]cc(CCN)c6c5)CC4)cc3)cc12",
    "units.of.measure": "pM",
    "Ki": 90
  }
]

Could you now consider this next molecule?
[in] Data request, read-out Ki, for NCCc1c[nH]c2ccc(OCC(=O)Nc3ccc(NC(=O)COc4ccc5[nH]cc(CCN)c5c4)cc3)cc12
[out] 110

###

Target: 5-hydroxytryptamine receptor 1A (Homo sapiens)
Sequence (P08908 whole entry): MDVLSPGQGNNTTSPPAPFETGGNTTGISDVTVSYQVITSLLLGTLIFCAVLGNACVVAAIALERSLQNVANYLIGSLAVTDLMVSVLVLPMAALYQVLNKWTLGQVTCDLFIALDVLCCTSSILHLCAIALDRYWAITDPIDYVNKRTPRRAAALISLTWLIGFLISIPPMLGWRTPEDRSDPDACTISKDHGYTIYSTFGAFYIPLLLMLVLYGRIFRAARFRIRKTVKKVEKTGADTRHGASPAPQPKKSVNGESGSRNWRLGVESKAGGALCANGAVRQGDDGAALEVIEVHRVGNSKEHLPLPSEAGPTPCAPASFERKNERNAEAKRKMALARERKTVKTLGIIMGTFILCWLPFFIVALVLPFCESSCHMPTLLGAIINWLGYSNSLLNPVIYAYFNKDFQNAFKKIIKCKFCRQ
Test: Ability to inhibit the forskolin-stimulated c-AMP formation mediated by human 5-hydroxytryptamine 1A receptor in CHO-K1 cells
Format: functional, cell-based
assay.metric: Ki (nM)
Number in nM, nothing else.

A selection of reference data follows.
[
  {
    "smiles": "NCCc1c[nH]c2ccc(OCCOc3ccc4[nH]cc(CCN)c4c3)cc12",
    "subject.of.test": "5-hydroxytryptamine receptor 1A (Homo sapiens)",
    "Ki [nM]": 14.3
  },
  {
    "smiles": "NCCc1c[nH]c2ccc(OCc3ccc(COc4ccc5[nH]cc(CCN)c5c4)cc3)cc12",
    "subject.of.test": "5-hydroxytryptamine receptor 1A (Homo sapiens)",
    "Ki [nM]": 1.6
  },
  {
    "smiles": "NCCc1c[nH]c2ccc(OCC(=O)N3CCC(C4CCN(C(=O)COc5ccc6[nH]cc(CCN)c6c5)CC4)CC3)cc12",
    "subject.of.test": "5-hydroxytryptamine receptor 1A (Homo sapiens)",
    "Ki [nM]": 4
  },
  {
    "smiles": "NCCc1c[nH]c2ccc(OCc3ccccc3COc3ccc4[nH]cc(CCN)c4c3)cc12",
    "subject.of.test": "5-hydroxytryptamine receptor 1A (Homo sapiens)",
    "Ki [nM]": 4.3
  }
]

The record that follows has no Ki shown yet.
[in] Ki for NCCc1c[nH]c2ccc(OCC(=O)NCCCNC(=O)COc3ccc4[nH]cc(CCN)c4c3)cc12 ?
[out] 8.6

###

Target: 5-hydroxytryptamine receptor 1B (Homo sapiens, UniProt P28222)
Assay: Ability to inhibit the forskolin-stimulated c-AMP formation mediated by human 5-hydroxytryptamine 1B receptor in CHO-K1 cells
assay.metric: pKi
The meaning of pKi here: minus log10 of the concentration in molar units.

Answered examples (4):
[
  {
    "smiles": "NCCc1c[nH]c2ccc(OCCN3CCN(CCOc4ccc5[nH]cc(CCN)c5c4)CC3)cc12",
    "subject.of.test": "5-hydroxytryptamine receptor 1B (Homo sapiens, UniProt P28222)",
    "pKi": 9.59
  },
  {
    "smiles": "NCCc1c[nH]c2ccc(OCCCCCCNS(=O)(=O)c3ccc(-c4ccc(S(=O)(=O)NCCCCCCOc5ccc6[nH]cc(CCN)c6c5)cc4)cc3)cc12",
    "subject.of.test": "5-hydroxytryptamine receptor 1B (Homo sapiens, UniProt P28222)",
    "pKi": 9.42
  },
  {
    "smiles": "NCCc1c[nH]c2ccc(OCC(=O)Nc3ccc(NC(=O)COc4ccc5[nH]cc(CCN)c5c4)cc3)cc12",
    "subject.of.test": "5-hydroxytryptamine receptor 1B (Homo sapiens, UniProt P28222)",
    "pKi": 9.57
  },
  {
    "smiles": "NCCc1c[nH]c2ccc(OCC(=O)Nc3ccc(N4CCN(C(=O)COc5ccc6[nH]cc(CCN)c6c5)CC4)cc3)cc12",
    "subject.of.test": "5-hydroxytryptamine receptor 1B (Homo sapiens, UniProt P28222)",
    "pKi": 9.85
  }
]

[in] So what's the measured pKi for this one? NCCc1c[nH]c2ccc(OCc3cccc(COc4ccc5[nH]cc(CCN)c5c4)c3)cc12
[out] 9.49

[in] Look up pKi: NCCc1c[nH]c2ccc(OCCOc3ccc4[nH]cc(CCN)c4c3)cc12
[out] 8.60

[in] Please report the recorded pKi for NCCc1c[nH]c2ccc(OCC(=O)NCCCNC(=O)COc3ccc4[nH]cc(CCN)c4c3)cc12 .
[out] 9.52

[in] Item NCCc1c[nH]c2ccc(OCC(=O)N3CCN(C(=O)COc4ccc5[nH]cc(CCN)c5c4)CC3)cc12 has what recorded pKi?
[out] 9.44

###

Target: 5-hydroxytryptamine receptor 1D (Homo sapiens, UniProt P28221)
Listed below: Ki values for each entry.

[
  {
    "smiles": "NCCc1c[nH]c2ccc(OCCNC(=O)COc3ccc4[nH]cc(CCN)c4c3)cc12",
    "Ki": "0.18 nM"
  },
  {
    "smiles": "NCCc1c[nH]c2ccc(OCC(=O)N3CCNCC3)cc12",
    "Ki": "> 100 nM"
  },
  {
    "smiles": "NCCc1c[nH]c2ccc(OCCOc3ccc4[nH]cc(CCN)c4c3)cc12",
    "Ki": "1 nM"
  },
  {
    "smiles": "NCCc1c[nH]c2ccc(OCc3ccccc3COc3ccc4[nH]cc(CCN)c4c3)cc12",
    "Ki": "1.5 nM"
  }
]

Okay, next one:
[in] # value lookup — system 5-hydroxytryptamine receptor 1D (Homo sapiens, UniProt P28221), readout Ki, item NCCc1c[nH]c2ccc(OCC(=O)N3CCN(C(=O)COc4ccc5[nH]cc(CCN)c5c4)CC3)cc12
[out] 0.42 nM

Entry source: ChEMBL document CHEMBL1129591
